Below, each of the compounds is paired with its reported pKi value.
study_target: human GABA A receptor α5β3γ2 (Homo sapiens (Human), UniProt P18507+P31644)
test_description: [3H]flumazenil competition binding assay, human GABA A α5β3γ2 receptors expressed in HEK293 cells
Note: pKi values are expressed as the negative base-10 logarithm of concentration in M.

{"columns": ["structure", "pKi"],
 "data": [
  ["Cc1onc(-c2ccccc2)c1COc1cc(C2=CCN(C)CC2)ccn1", 7.49],
  ["Cc1onc(-c2ccccc2)c1COc1ccc(C(=O)NC2CCN(C(C)C)CC2)cn1", 8.00]
]}

Continue with the compound presented below.
For `Cc1onc(-c2ccc(F)cc2)c1COc1ccc(C(=O)N2C[C@H]3C[C@@H](C2)O3)cn1` the compound record lists pKi as 7.37
